# measuredTarget: agarose-immobilized hNE beads (Homo sapiens, UniProt P08246)
# Sequence (P08246 30-267): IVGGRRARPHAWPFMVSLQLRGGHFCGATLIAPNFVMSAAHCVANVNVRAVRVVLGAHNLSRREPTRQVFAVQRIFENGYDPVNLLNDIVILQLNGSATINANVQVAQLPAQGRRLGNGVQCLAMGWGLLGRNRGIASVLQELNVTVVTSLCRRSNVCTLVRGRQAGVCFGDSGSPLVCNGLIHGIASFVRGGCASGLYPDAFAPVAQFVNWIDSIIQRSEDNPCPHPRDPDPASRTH
# testName: pH fractionation of display phage on agarose-immobilized hNE beads
# Assay type: binding
# conditionContext: AE abbreviated pH elution protocol
experimentalReadout: Fraction of Input recovered at pH2.0

Consider the worked cases shown below.
BITI-E7-141: BITI-E7 with the alterations E31Q and Q34V; SEQ ID NO 017 (RPDFCQLGYSAGPCVAMFPRYFYNGTSMACQTFVYGGCMGNGNNFVTEKDCLQTCRGA; BITI-E7-141) | 5.4 ×10^−4
AMINO2: ITI-D1 derivative carrying K1-S4, SEQ ID NO 023 (KPDSCQLGYSAGPCVAMFPRYFYNGTSMACETFQYGGCMGNGNNFVTEKDCLQTCRGA; AMINO2) | 0.45 ×10^−4
MUTQE: BITI-E7-141 with Q31E; SEQ ID NO 019 (RPDFCQLGYSAGPCVAMFPRYFYNGTSMACETFVYGGCMGNGNNFVTEKDCLQTCRGA; MUTQE) | 5.3 ×10^−4

With those in mind, consider the next substance.
q: Name the recorded Fraction of Input recovered at pH2.0 of the item MUTP1: ITI-D1 derivative asserting I15, G16, S19; SEQ ID NO 024 (RPDFCQLGYSAGPCIGMFSRYFYNGTSMACETFQYGGCMGNGNNFVTEKDCLQTCRGA; MUTP1) in your answer.
a: 1.2 ×10^−4

====

# measuredTarget: agarose-immobilized hNE beads (Homo sapiens)
# Sequence (P08246 30-267): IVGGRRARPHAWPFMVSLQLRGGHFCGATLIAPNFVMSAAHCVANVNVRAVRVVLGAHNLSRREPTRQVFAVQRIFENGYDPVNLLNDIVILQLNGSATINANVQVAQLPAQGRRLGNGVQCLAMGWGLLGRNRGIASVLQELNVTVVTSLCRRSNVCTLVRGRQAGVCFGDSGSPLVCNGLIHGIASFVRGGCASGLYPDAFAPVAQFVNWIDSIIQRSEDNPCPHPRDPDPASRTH
# testName: pH fractionation of display phage on agarose-immobilized hNE beads
# Format: binding
# Set-up: scale not given here
# conditionContext: EE extended pH elution protocol
Note to self: values exactly at 0.7 are satisfied. So Fraction of Input recovered at pH7.0 at or above 0.7 is satisfied, below is not satisfied.

Consider the following illustrative entries.
MUTT26A: BITI-E7-141 with T26A; SEQ ID NO 018 (RPDFCQLGYSAGPCVAMFPRYFYNGASMACQTFVYGGCMGNGNNFVTEKDCLQTCRGA; MUTT26A) | satisfied
BITI-E7-141: BITI-E7 with the alterations E31Q and Q34V; SEQ ID NO 017 (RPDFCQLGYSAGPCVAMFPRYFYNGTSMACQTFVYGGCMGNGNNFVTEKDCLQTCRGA; BITI-E7-141) | satisfied
MUT1619: BITI-E7-141 with ITI-D1 residues restored at 16 and 19; SEQ ID NO 020 (RPDFCQLGYSAGPCVGMFSRYFYNGTSMACQTFVYGGCMGNGNNFVTEKDCLQTCRGA; MUT1619) | satisfied

Lab note: next substance to report on.
q: Does the substance AMINO1: ITI-D1 derivative carrying K1-E2, SEQ ID NO 022 (KEDFCQLGYSAGPCVAMFPRYFYNGTSMACETFQYGGCMGNGNNFVTEKDCLQTCRGA; AMINO1) have recorded Fraction of Input recovered at pH7.0 that is 0.7 or more?
a: not satisfied

====

# measuredTarget: agarose-immobilized hNE beads (Homo sapiens)
# Sequence (P08246 30-267): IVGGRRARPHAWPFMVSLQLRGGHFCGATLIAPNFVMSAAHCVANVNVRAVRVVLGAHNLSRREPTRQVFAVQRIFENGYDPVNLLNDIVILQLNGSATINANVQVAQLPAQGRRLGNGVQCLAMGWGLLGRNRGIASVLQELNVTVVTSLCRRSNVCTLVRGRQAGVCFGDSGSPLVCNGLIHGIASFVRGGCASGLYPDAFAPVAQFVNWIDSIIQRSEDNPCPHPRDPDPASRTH
# testName: pH fractionation of display phage on agarose-immobilized hNE beads
# Assay type: binding
# conditionContext: EE; sum of pH 3.0, 2.5, 2.0 samples
experimentalReadout: Fraction of Input recovered at pH2.0

Consider the worked cases shown below.
AMINO1: ITI-D1 derivative carrying K1-E2, SEQ ID NO 022 (KEDFCQLGYSAGPCVAMFPRYFYNGTSMACETFQYGGCMGNGNNFVTEKDCLQTCRGA; AMINO1) | 0.35 ×10^−4
BITI-E7-1222: BITI-E7 with the alteration A11T; SEQ ID NO 143 (RPDFCQLGYSTGPCVAMFPRYFYNGTSMACETFQYGGCMGNGNNFVTEKDCLQTCRGA; BITI-E7-1222) | 0.64 ×10^−4
BITI-E7-141: BITI-E7 with the alterations E31Q and Q34V; SEQ ID NO 017 (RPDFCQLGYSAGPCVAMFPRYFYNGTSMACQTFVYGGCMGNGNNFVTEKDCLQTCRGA; BITI-E7-141) | 3.2 ×10^−4
MUT1619: BITI-E7-141 with ITI-D1 residues restored at 16 and 19; SEQ ID NO 020 (RPDFCQLGYSAGPCVGMFSRYFYNGTSMACQTFVYGGCMGNGNNFVTEKDCLQTCRGA; MUT1619) | 0.84 ×10^−4

With those in mind, consider the next substance.
q: Name the recorded Fraction of Input recovered at pH2.0 of the item MUTT26A: BITI-E7-141 with T26A; SEQ ID NO 018 (RPDFCQLGYSAGPCVAMFPRYFYNGASMACQTFVYGGCMGNGNNFVTEKDCLQTCRGA; MUTT26A) in your answer.
a: 3.3 ×10^−4

====

For each record, write down the corresponding Fraction of Input recovered at pH3.5.
# measuredTarget: agarose-immobilized hNE beads (Homo sapiens)
# Sequence (P08246 30-267): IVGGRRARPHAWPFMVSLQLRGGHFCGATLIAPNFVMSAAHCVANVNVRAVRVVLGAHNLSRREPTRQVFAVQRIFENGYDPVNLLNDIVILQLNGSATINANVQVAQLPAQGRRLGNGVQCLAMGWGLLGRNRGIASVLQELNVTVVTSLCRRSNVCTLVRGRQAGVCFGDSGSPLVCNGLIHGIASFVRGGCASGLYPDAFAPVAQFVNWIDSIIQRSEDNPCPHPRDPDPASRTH
# testName: pH fractionation of display phage on agarose-immobilized hNE beads
# Type: binding
# conditionContext: AE abbreviated pH elution protocol

Consider the worked cases shown below.
MUTP1: ITI-D1 derivative asserting I15, G16, S19; SEQ ID NO 024 (RPDFCQLGYSAGPCIGMFSRYFYNGTSMACETFQYGGCMGNGNNFVTEKDCLQTCRGA; MUTP1) | 9.2 ×10^−4
BITI-E7-141: BITI-E7 with the alterations E31Q and Q34V; SEQ ID NO 017 (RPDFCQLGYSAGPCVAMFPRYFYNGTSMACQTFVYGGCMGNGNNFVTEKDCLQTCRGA; BITI-E7-141) | 18.0 ×10^−4
MUTQE: BITI-E7-141 with Q31E; SEQ ID NO 019 (RPDFCQLGYSAGPCVAMFPRYFYNGTSMACETFVYGGCMGNGNNFVTEKDCLQTCRGA; MUTQE) | 16. ×10^−4

With those in mind, consider the next substance.
q: Name the recorded Fraction of Input recovered at pH3.5 of the item AMINO2: ITI-D1 derivative carrying K1-S4, SEQ ID NO 023 (KPDSCQLGYSAGPCVAMFPRYFYNGTSMACETFQYGGCMGNGNNFVTEKDCLQTCRGA; AMINO2) in your answer.
a: 2.1 ×10^−4

====

# measuredTarget: agarose-immobilized hNE beads (Homo sapiens, UniProt P08246)
# Sequence (P08246 30-267): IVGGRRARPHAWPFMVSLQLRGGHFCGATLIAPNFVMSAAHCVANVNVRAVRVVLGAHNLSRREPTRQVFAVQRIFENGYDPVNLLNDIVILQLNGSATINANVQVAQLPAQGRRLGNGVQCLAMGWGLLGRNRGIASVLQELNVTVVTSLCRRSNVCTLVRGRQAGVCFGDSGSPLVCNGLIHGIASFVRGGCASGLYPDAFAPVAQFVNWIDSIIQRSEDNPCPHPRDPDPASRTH
# testName: pH fractionation of display phage on agarose-immobilized hNE beads
# Type: binding
# conditionContext: EE; total fraction of input
# Procedure: For the purpose of simultaneously assessing the affinity of a large number of different BPTI and ITI-D1 muteins, DNA sequences encoding the BPTI or ITI-D1 was incorporated into the genome of the bacteriophage M13. […] Alterations in the KuDom amino acid sequence were introduced. […] Subsequently, the sequences of these mutant KuDoms were determined (typically by sequencing the corresponding DNA sequence). […] To test if ITI-D1E7-display phage bind hNE beads, pH elution profiles were measured. […]
experimentalReadout: Recovery Total

Consider the worked cases shown below.
AMINO1: ITI-D1 derivative carrying K1-E2, SEQ ID NO 022 (KEDFCQLGYSAGPCVAMFPRYFYNGTSMACETFQYGGCMGNGNNFVTEKDCLQTCRGA; AMINO1) | 2.9 ×10^−4
MUT1619: BITI-E7-141 with ITI-D1 residues restored at 16 and 19; SEQ ID NO 020 (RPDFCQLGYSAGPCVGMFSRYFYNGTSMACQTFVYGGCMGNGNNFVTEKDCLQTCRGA; MUT1619) | 12.0 ×10^−4
BITI-E7-141: BITI-E7 with the alterations E31Q and Q34V; SEQ ID NO 017 (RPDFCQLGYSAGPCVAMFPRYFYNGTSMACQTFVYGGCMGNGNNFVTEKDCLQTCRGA; BITI-E7-141) | 26.0 ×10^−4

State the recorded Recovery Total for every item in the following list.
1. BITI-E7-1222: BITI-E7 with the alteration A11T; SEQ ID NO 143 (RPDFCQLGYSTGPCVAMFPRYFYNGTSMACETFQYGGCMGNGNNFVTEKDCLQTCRGA; BITI-E7-1222)
2. MUTT26A: BITI-E7-141 with T26A; SEQ ID NO 018 (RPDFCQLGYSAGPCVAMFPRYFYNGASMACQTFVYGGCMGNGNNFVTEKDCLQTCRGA; MUTT26A)

a:
5.4 ×10^−4
25.0 ×10^−4
